Biological target: CyclinE1/CDK2 (Homo sapiens, UniProt P24864)
Construct: purchased Eurofins, discovery 14-475
Test: Fluorescence Polarization (FP) competitive binding assay, Cyclin E1/Cdk2;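 further: readings taken after two-hour equilibration at room temperature in HEPES buffer with NaCl, DTT, NP-40 and BSA, IC50 fitted from eight-concentration serial dilution series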
Conditions: 10 nM Cyclin E1/Cdk2, 2 nM FAM probe; average of 2-3 independent experiments; read-out: Cyclin E FP IC50
*1 amine or outer side, *2 acyl side, *3 side chain or, on linkers, in order; H or OH if unused. Where a SMILES comes first, the peptide text is derived from it. Bridges are numbered along the chain shown (N, C = ends). [ ]: non-standard residue; d: D form. The star is where a group is joined. X52 = CN1C[C@@H]2C[C@H]1CN2c1ccc(-c2ccc(Cl)cc2C[C@@H](C(=O)[*:2])N(C)[*:1])cc1; NMehhhLys(Me) = CN([C@@H](CCCCCCCN(C)[*:3])C(=O)[*:2])[*:1]; cBuCO(3,3-F2-1-CF3) = O=C(C1(C(F)(F)F)CC(F)(F)C1)*; Pro(trans-4-F) = O=C(O)[C@@H]1C[C@@H](F)CN1; Gly(cPr) = N[C@H](C(=O)O)C1CC1
Give measured pIC50 for each item. Keep answers brief.
One number for each entry, as −log10 of the molar value.

Molecule	pIC50
CC(C)C[C@@H]1NC(=O)[C@@H](N(C)C(=O)[C@@H](NC(=O)[C@@H]2C[C@@H](F)CN2C(=O)C2(C(F)(F)F)CC(F)(F)C2)C2CC2)CC=CCCCCNC(=O)[C@H](Cc2cc(Cl)ccc2Oc2ncccn2)N(C)C1=O	5.72

State the recorded pIC50 for every item in the following list.
1. Cc1nnc(-c2ccc(Cl)cc2C[C@H]2C(=O)NCCCCC=CC[C@H](N(C)C(=O)[C@@H](NC(=O)[C@@H]3C[C@@H](F)CN3C(=O)C3(C(F)(F)F)CC(F)(F)C3)C3CC3)C(=O)N[C@@H](CC(C)C)C(=O)N2C)o1 (single isomer, unassigned) [Example 118-P2]
2. CC(C)C[C@@H]1NC(=O)[C@@H](N(C)C(=O)[C@@H](NC(=O)[C@@H]2C[C@@H](F)CN2C(=O)C2(C(F)(F)F)CC(F)(F)C2)C2CC2)CCCCCCCN(C)C(=O)[C@H](Cc2cc(Cl)ccc2-c2ccc(N3C[C@@H]4C[C@H]3CN4C)cc2)N(C)C1=O [Example 357] ({cBuCO(3,3-F2-1-CF3)}-[Pro(trans-4-F)][Gly(cPr)][NMehhhLys(Me)]L[X52]; lactam 3-C)

*A*
1. 6.52
2. 5.71
